# System: Fibroblast
# ASSAY_NAME: Multiplex assay against human fibroblast
# Assay type: toxicity, cell-based
# MEASUREMENT_PARAMETERS: 12 h, 1 µM, compound concentration 1 uM, replicate 2
Examples of compounds with documented Population Pyknosed Nuclei (%) follow.
Enter the number, and then the unit.

# count of solved cases: 4
O=c1ccc2ccc(OCCCCN3CCN(c4cccc5sccc45)CC3)cc2[nH]1
21%
CN1CCN(c2ccc(Nc3c4ccccc4nc4ccccc34)cc2)CC1.Cl.Cl.O
15%
Cc1ccc(OCC(O)C(C)NC(C)C)c2c1CCC2.Cl (stereo not drawn)
27%
COc1cc(Nc2ncc3c(n2)-c2ccc(Cl)cc2C(c2c(F)cccc2OC)=NC3)ccc1C(=O)O
33%

# input compound: "Cc1cc(=O)n(C)c2cc(N3C(=O)CC[C@H](NS(=O)(=O)CC(C)C)[C@H]3c3ccc(Cl)cc3)ccc12" ; wanted: its Population Pyknosed Nuclei (%)
40%

# input compound: "CC(C)C[C@H](CO)Nc1nc(S[C@@H](C)c2ccccc2)nc2nc(N)sc12" ; wanted: its Population Pyknosed Nuclei (%)
21%

----------
# Test system: Fibroblast
# ASSAY_NAME: Multiplex assay against human fibroblast
# Assay type: toxicity, cell-based
# MEASUREMENT_PARAMETERS: 12 h, 1 µM, compound concentration 1 uM, replicate 2
Non-standard residues stand in square brackets, D forms with d. Residues, ends and D or L forms follow the SMILES beside them.
OBSERVATION_TYPE: Total Cell Count
Response field accepts a number only; no unit should be typed.

Cc1cc(=O)n(C)c2cc(N3C(=O)CC[C@H](NS(=O)(=O)CC(C)C)[C@H]3c3ccc(Cl)cc3)ccc12
137
O=c1nc2[nH]c3ccccc3nc-2c(=O)[nH]1 [ALLOXAZINE]
131
COc1ccc2c(c1OCc1ccccc1)C[C@@H](C(=O)O)N(C(=O)C(c1ccccc1)c1ccccc1)C2 [OLODANRIGAN]
154

# input compound: "Cc1sc2c(c1C)C(c1ccc(Cl)cc1)=N[C@H](CC(=O)OC(C)(C)C)c1nnc(C)n1-2" ; wanted: its Total Cell Count
159

# input compound: Cc1cc(NC(=O)NCCN2CCC(O)(Cc3ccccc3)CC2)c2ccccc2n1 [PALOSURAN] ; wanted: its Total Cell Count
143

# input compound: "COc1cc(OC2CCN(C(C)=O)CC2)ccc1C(=O)N1CCC(N2C(=O)OCc3ccccc32)CC1" ; wanted: its Total Cell Count
159

# input compound: "Cc1cc(O)c(-c2ccc([C@@H](C)CN(C)C)cc2)c2c1[nH]c(=O)c1sccc12" ; wanted: its Total Cell Count
115

# input compound: Nc1nc(CC(=O)Nc2ccc(CCNC[C@H](O)c3ccccc3)cc2)cs1 [MIRABEGRON] ; wanted: its Total Cell Count
189

# input compound: Cc1c(Cc2ccc3ccccc3n2)c2cc(F)ccc2n1CC(=O)O [TIMAPIPRANT] ; wanted: its Total Cell Count
142

# input compound: "CN1CCN(c2ccc(Nc3c4ccccc4nc4ccccc34)cc2)CC1.Cl.Cl.O" ; wanted: its Total Cell Count
160

# input compound: CC(C)C[C@@H]1NC(=O)[C@@H](C(C)C)NC(=O)[C@@H]2CCCN2C(=O)[C@@H](CC(=O)O)NC(=O)[C@@H](Cc2c[nH]c3ccccc23)NC1=O [BQ-123] (cyclo(L[dW][dD]P[dV])) ; wanted: its Total Cell Count
157

# input compound: "COc1cc(C(=O)N2CC[C@@H](O)[C@@H](N)C2)cc2nc(-c3cc4ccccc4n3CC3CC3)n(C)c12.Cl" ; wanted: its Total Cell Count
130

# input compound: CN1CCN2c3ccccc3Cc3ccccc3C2C1.Cl (stereo unspecified) [MIANSERIN HYDROCHLORIDE] ; wanted: its Total Cell Count
119

# input compound: "Nc1nc(-c2ccco2)c2cnn(Cc3ccccc3F)c2n1" ; wanted: its Total Cell Count
144

# input compound: "CN(C)C(=O)Cn1cc(-c2ccc(-c3nnc4ccccn34)cc2)cn1" ; wanted: its Total Cell Count
152

# input compound: "CC(C)(O)C(=O)N1CCN(c2ccc(C(F)(F)F)c(C3=C(c4c[nH]c5ccccc45)C(=O)NC3=O)c2)CC1" ; wanted: its Total Cell Count
170

# input compound: Cl.Cl.OCCOCCN1CCN(C(c2ccccc2)c2ccc(Cl)cc2)CC1 (stereo unspecified) [HYDROXYZINE HYDROCHLORIDE] ; wanted: its Total Cell Count
155

# input compound: "C[C@@H]1CC(=O)Nc2cccc(-c3ccc4c(c3)c(-c3cnn(C)c3)nn4C)c2N1" ; wanted: its Total Cell Count
105

# input compound: "C[C@H](NC(=O)CNC(=O)c1cccc(Cl)c1)c1ccccc1" ; wanted: its Total Cell Count
140

# input compound: "OCCCNc1cc(-c2ccnc(Nc3cccc(Cl)c3)n2)ccn1" ; wanted: its Total Cell Count
138

# input compound: O=c1ccc2ccc(OCCCCN3CCN(c4cccc5sccc45)CC3)cc2[nH]1 [BREXPIPRAZOLE] ; wanted: its Total Cell Count
169

# input compound: "CCc1nn2c(C)cc(C)nc2c1Cc1ccc(-c2nnc(C3CCNCC3)o2)cc1" ; wanted: its Total Cell Count
167

# input compound: "S=C(NCCCc1c[nH]cn1)NCCCN(Cc1ccc(Cl)c(Cl)c1)c1ccc(Br)cn1" ; wanted: its Total Cell Count
181

# input compound: "O=C(Nc1cc(-c2ccccc2)nn1-c1ccccc1F)c1ccc([N+](=O)[O-])cc1" ; wanted: its Total Cell Count
160

# input compound: CCn1c(-c2nc3cc(C(=O)N4CCCC(N)C4)ccc3n2C)cc2ccccc21.Cl (stereo unspecified) ; wanted: its Total Cell Count
167

----------
# Test system: HEK-293T
# ASSAY_NAME: Multiplex assay against HEK293T
# Type: toxicity, cell-based
# MEASUREMENT_PARAMETERS: human, 24 h, 10 µM, compound concentration 10 uM, replicate 1
Decision: Population Healthy Nuclei (%) compared against 70%; not below it gives y, below it gives n.

Consider the worked cases shown below.
Cc1cc(-c2ccc3c(c2)CC[C@H]3N2CC3(CCN(C(=O)Cc4cn5cc(C)sc5n4)CC3)C2)ncn1
y
S=C(NCCCc1c[nH]cn1)NCCCN(Cc1ccc(Cl)c(Cl)c1)c1ccc(Br)cn1
n
Cc1cc(O)c(-c2ccc([C@@H](C)CN(C)C)cc2)c2c1[nH]c(=O)c1sccc12
n
COc1cc2nc(N3CCN(C(=O)COc4c(OC)cccc4C(C)C)CC3)nc(N)c2cc1OC.Cl.Cl
n
CN1CCC(C(=O)c2cccc(NC(=O)c3c(F)cc(F)cc3F)n2)CC1
y

Record "CCCCC[C@H](O)/C=C/[C@H]1[C@H](O)CC(=O)[C@@H]1CCCCCCC(=O)O" ; criterion: Population Healthy Nuclei (%) no lower than 70%. Met?
y

Record "COc1ccc2c(c1OCc1ccccc1)C[C@@H](C(=O)O)N(C(=O)C(c1ccccc1)c1ccccc1)C2" ; criterion: Population Healthy Nuclei (%) no lower than 70%. Met?
y

----------
# Test system: U2OS
# ASSAY_NAME: Multiplex assay against U2OS
# Format: toxicity, cell-based
# MEASUREMENT_PARAMETERS: human, 12 h, 10 µM, compound concentration 10 uM, replicate 1
Non-standard residues stand in square brackets, D forms with d. Residues, ends and D or L forms follow the SMILES beside them.
Decision: Population Hoechst High Intensity Objects (%) compared against 3%; not below it gives MET, below it gives NOT MET.

CCCCC[C@H](O)/C=C/[C@H]1[C@H](O)CC(=O)[C@@H]1CCCCCCC(=O)O [ALPROSTADIL]
NOT MET

Record O=c1nc2[nH]c3ccccc3nc-2c(=O)[nH]1 [ALLOXAZINE] ; criterion: Population Hoechst High Intensity Objects (%) no lower than 3%. Met?
NOT MET

Record "OCCCNc1cc(-c2ccnc(Nc3cccc(Cl)c3)n2)ccn1" ; criterion: Population Hoechst High Intensity Objects (%) no lower than 3%. Met?
MET

Record "CCc1nn2c(C)cc(C)nc2c1Cc1ccc(-c2nnc(C3CCNCC3)o2)cc1" ; criterion: Population Hoechst High Intensity Objects (%) no lower than 3%. Met?
MET

Record CC(C)C[C@@H]1NC(=O)[C@@H](C(C)C)NC(=O)[C@@H]2CCCN2C(=O)[C@@H](CC(=O)O)NC(=O)[C@@H](Cc2c[nH]c3ccccc23)NC1=O [BQ-123] (cyclo(L[dW][dD]P[dV])) ; criterion: Population Hoechst High Intensity Objects (%) no lower than 3%. Met?
NOT MET

----------
# System: Fibroblast
# ASSAY_NAME: Multiplex assay against human fibroblast
# Assay type: toxicity, cell-based
# MEASUREMENT_PARAMETERS: 24 h, 1 µM, compound concentration 1 uM, replicate 1
OBSERVATION_TYPE: Population Fragmented Nuclei (%)
Give your result in % as a bare value.

C[C@H](NC(=O)CNC(=O)c1cccc(Cl)c1)c1ccccc1
17
Nc1nc(-c2ccco2)c2cnn(Cc3ccccc3F)c2n1
9
O=C(Nc1cc(-c2ccccc2)nn1-c1ccccc1F)c1ccc([N+](=O)[O-])cc1
16
CC(C)(C)c1ccc(CSc2cnn(C(C)(C)C)c(=O)c2Cl)cc1
17

Now look at this entry.
# input compound: "C[C@@H]1CC(=O)Nc2cccc(-c3ccc4c(c3)c(-c3cnn(C)c3)nn4C)c2N1" ; wanted: its Population Fragmented Nuclei (%)
16

Ref: ChEMBL document CHEMBL5058577
